System: Escherichia coli
run-conditions: Concentration 20 uM; ASSAY_TEST Inhibition of Bacterial Growth; detection method Absorption (OD600); MEDIA CAMHB; plate type 384well; NBS; CORNING #3640; time 18 hr
Description: Antibacterial activity against Escherichia coli ATCC 25922 (CO-ADD:GN_001); MIC in CAMBH media using NBS plates, by OD(600)
Entries with a potency or affinity are not part of this list.
Measured Inhibition by item
Numeric only. Scale: %

Use the examples below as a reference point.
>>> recorded_measurement("CNc1cc(C)nc(C2CN(C(=O)c3n[nH]c4ccccc34)CCO2)c1 (stereo not given)")
10.11
>>> recorded_measurement("COc1ccc(Nc2ccccc2NC(=O)c2ccc(O)nc2)cc1")
-4.3
>>> recorded_measurement("Cl.NCC(c1cccs1)S(=O)(=O)c1ccccc1 (stereo not given)")
-0.69
>>> recorded_measurement("Cc1cnc(N2CCN[C@@H](Cc3ccccc3)C2)nc1Oc1ccc(-n2ccnc2)cc1.Cl")
-1.63

Q. Please report Inhibition with Escherichia coli for item c1ccc(-c2[nH]c3ccccc3c2C(c2ccccn2)N2CCCC2)cc1 (stereo not given) .
A. 3.92

Q. Please report Inhibition with Escherichia coli for item "Nc1cccnc1Nc1ccc(Cl)cc1" .
A. -1.63

###

Measured Inhibition by item
Tested on: Staphylococcus aureus
run-conditions: Concentration 20 uM; ASSAY_TEST Inhibition of Bacterial Growth; detection method Absorption (OD600); MEDIA CAMHB; plate type 384well; NBS; CORNING #3640; time 18 hr
Description: Antibacterial activity against Staphylococcus aureus MRSA ATCC 43300 (CO-ADD:GP_020); MIC in CAMBH media, using NBS plates, by OD(600)
Entries with a potency or affinity are not part of this list.
Numeric only. Scale: %

>>> recorded_measurement("O=C(C1CCN(c2nnc(-n3cccc3)s2)CC1)N1CCC(Cc2ccccc2)CC1")
17.77
>>> recorded_measurement("CNC(=O)c1cc(S(=O)(=O)N2CCN(c3ccccn3)CC2)cs1")
7.99
>>> recorded_measurement("Nc1ncc(-c2cn[nH]c2)cc1-c1nc2cc(Cl)cnc2[nH]1")
-0.61
>>> recorded_measurement("CC(C)(C)OC(=O)N1CCN(c2nccc(-c3ccc(-c4ccc(Cl)cc4)s3)n2)CC1")
15.85
>>> recorded_measurement("COc1ccc(C(=N)N)cc1-c1cn(-c2ccc(C(=N)N)cc2)nn1.Cl.Cl")
4.09

Q. Please report Inhibition with Staphylococcus aureus for item "COc1ccc2nc(C)cc(OCC(=O)NCc3ccccc3)c2c1" .
A. 12.19

Q. Please report Inhibition with Staphylococcus aureus for item CC(C)n1ncc2c(C(=O)NCC(c3cccs3)N3CCOCC3)cc(-c3ccccc3)nc21 (stereo unspecified) .
A. 11.85

Q. Please report Inhibition with Staphylococcus aureus for item c1ccc(-c2[nH]c3ccccc3c2C(c2ccccn2)N2CCCC2)cc1 (stereo unspecified) .
A. 7

###

Tested on: Escherichia coli
run-conditions: Concentration 20 uM; ASSAY_TEST Inhibition of Bacterial Growth; detection method Absorption (OD600); MEDIA CAMHB; plate type 384well; NBS; CORNING #3640; time 18 hr
Entries with a potency or affinity are not part of this list.
Measured Inhibition by item
Numeric only. Scale: %

>>> recorded_measurement("O=C1COCc2ccc(Br)cc2N1Cc1ccc(C(F)(F)F)cc1")
10.17

Q. Please report Inhibition with Escherichia coli for item COc1ccc(CN2CCOc3ccc(C(C)(O)CN(C)C)cc3C2)cc1C (stereo unspecified) .
A. 9.29

Q. Please report Inhibition with Escherichia coli for item "Cc1cc(OCC(=O)NCc2ccccc2)c2cc(Br)ccc2n1" .
A. 7.85

Q. Please report Inhibition with Escherichia coli for item "COc1ccc(C(=N)N)cc1-c1cn(-c2ccc(C(=N)N)cc2)nn1.Cl.Cl" .
A. 2.37

Q. Please report Inhibition with Escherichia coli for item "O=C(NC1CC1)c1ccc(CSCc2ccccc2Cl)o1" .
A. -1.44

Q. Please report Inhibition with Escherichia coli for item "COc1cc(Br)cc2cc(C(=O)Nc3cccc(C(F)(F)F)c3)c(=O)oc12" .
A. 1.89

Q. Please report Inhibition with Escherichia coli for item "Cc1ccccc1C(=O)N1N=C(Nc2ccccc2)SC1(C)C" .
A. 8.51

###

System: Staphylococcus aureus
run-conditions: Concentration 20 uM; ASSAY_TEST Inhibition of Bacterial Growth; detection method Absorption (OD600); MEDIA CAMHB; plate type 384well; NBS; CORNING #3640; time 18 hr
Measured potencies and affinities stand elsewhere.
observed-property: Inhibition (%)
Numeric only. Scale: %

>>> recorded_measurement("Nc1ccc(C(=O)Nc2ccc(-c3nc4ccccc4o3)cc2)cc1")
11.63
>>> recorded_measurement("COc1cc2ncnc(NC3CCN(Cc4ccccc4)CC3)c2cc1OC")
7.78
>>> recorded_measurement("CCOc1ccc2cc(-c3nn(CC4CCN(C)CC4)c4ncnc(N)c34)ccc2c1.Cl")
18.54
>>> recorded_measurement("CC(C)(C)n1nc(Cc2ccc(F)c(Cl)c2)c2c(N)ncnc21")
12.68
>>> recorded_measurement("COc1cc(OC)cc(C(=O)NCC2Cc3cc(Cl)cc(-c4ccncc4)c3O2)c1 (configuration not stated)")
16.01
>>> recorded_measurement("CCc1ccc(C(NCc2nc(N)nc(N(C)C)n2)C(C)C)cc1 (configuration not stated)")
6.21

Pending compound:
Q. Please report Inhibition with Staphylococcus aureus for item "Cc1ccc2nc(Cl)c(CNCc3cccs3)cc2c1" .
A. 2.71

###

Tested on: Staphylococcus aureus
run-conditions: Concentration 20 uM; ASSAY_TEST Inhibition of Bacterial Growth; detection method Absorption (OD600); MEDIA CAMHB; plate type 384well; NBS; CORNING #3640; time 18 hr
Results with a measured potency or affinity are listed apart.
Measured Inhibition by item
Numeric only. Scale: %

>>> recorded_measurement("FC(F)(F)c1cccc(-c2nc3c(NCc4ccncc4)nccc3[nH]2)c1")
9.41

Q. Please report the measured Inhibition for "COc1cc(CN2CCC3(C=Cc4ccccc43)CC2)cc2c1OCO2"
A. -1.3

Q. Please report the measured Inhibition for "CCCS(=O)(=O)N1CCC(CO)(Cc2ccccc2C(F)(F)F)CC1"
A. 8.25

Q. Please report the measured Inhibition for "CC(=O)Nc1ccc(NC(=O)c2cc(-c3cc(Cl)ccc3O)n[nH]2)cc1"
A. 5.62

Q. Please report the measured Inhibition for "CCn1ncc2c(NC3CCOCC3)c(CNC(=O)c3ccnn3C)c(C)nc21"
A. 5.59

Q. Please report the measured Inhibition for "NCC(=O)N1CCn2c(nc(-c3ccccc3)c2Nc2ccc3c(c2)OCO3)C1"
A. 11.35

Q. Please report the measured Inhibition for CN1CCCC1CCO[C@](C)(c1ccccc1)c1ccc(Cl)cc1.O=C(O)/C=C/C(=O)O (some centres not stated)
A. 18.42

Q. Please report the measured Inhibition for "Clc1ccc(CCNc2cc(-c3ccccc3)nc3ncnn23)cc1"
A. 16.06

Q. Please report the measured Inhibition for "CN(C)c1cc(NC(=O)Nc2ccccc2)c2ccccc2n1"
A. 12.79

Q. Please report the measured Inhibition for COc1ccc(OC(C)C(=O)Nc2ccc(Cl)cc2C)cc1 (configuration not stated)
A. 11.95

Q. Please report the measured Inhibition for "CS(=O)(=O)c1cccc(-c2cnc3[nH]cc(-c4ccc(CCC(=O)O)cc4)c3c2)c1"
A. 21.11

Q. Please report the measured Inhibition for "COC(=O)c1ccc(F)cc1NS(=O)(=O)c1cccc(-c2cnn(Cc3ccccc3)c2)c1"
A. 11.02

###

Measured Inhibition by item
Tested on: Staphylococcus aureus
run-conditions: Concentration 20 uM; ASSAY_TEST Inhibition of Bacterial Growth; detection method Absorption (OD600); MEDIA CAMHB; plate type 384well; NBS; CORNING #3640; time 18 hr
Entries with a potency or affinity are not part of this list.
Numeric only. Scale: %

>>> recorded_measurement("Cl.c1ccc(C[C@@H]2CN(c3nccc(Oc4ccc(-n5ccnc5)cc4)n3)CCN2)cc1")
21.29

Q. Please report the measured Inhibition for CC(C)=CCC/C(C)=C\CNCCNC1C2CC3CC(C2)CC1C3 (stereo not drawn)
A. 37.58

Q. Please report the measured Inhibition for "Cc1cc(C(=O)Nc2ccc(-c3ccccc3)cc2)no1"
A. 16.2

Q. Please report the measured Inhibition for "Cc1ncc(-c2ccnc(Nc3ccc(S(C)(=O)=O)cc3)n2)n1C(C)C"
A. 28.03

Q. Please report the measured Inhibition for "CN1CCN(S(=O)(=O)c2ccc(-c3ccc4c(Nc5ncc(Cl)cn5)ccnc4c3)cc2)CC1"
A. 23.03

Q. Please report the measured Inhibition for "COc1cc(C(F)(F)F)nc2ccc(C)c(N)c12"
A. 15.64

Q. Please report the measured Inhibition for "NS(=O)(=O)c1cccc(-c2ccc3ncc(N4CCOCC4)nc3c2)c1"
A. 16.94

Q. Please report the measured Inhibition for O=C1N(Cc2cc3ccccc3s2)CC2CN(Cc3ccccc3)CCN12 (stereo not drawn)
A. 3.35

Q. Please report the measured Inhibition for "CC(C)(C)n1nc(-c2ccccc2)c2c(N)ncnc21"
A. 6.95

###

System: Staphylococcus aureus
run-conditions: Concentration 20 uM; ASSAY_TEST Inhibition of Bacterial Growth; detection method Absorption (OD600); MEDIA CAMHB; plate type 384well; NBS; CORNING #3640; time 18 hr
Potency and affinity values are given separately.
observed-property: Inhibition (%)
Numeric only. Scale: %

Use the examples below as a reference point.
>>> recorded_measurement("COc1cc(C2=NCCN2)ccc1-c1cn(-c2cccc(C3=NCCN3)c2)nn1")
19.96
>>> recorded_measurement("C[C@]1(O)C[C@@H](c2nc(-c3ccc4ccc(-c5ccccc5)nc4c3)c3c(N)nccn32)C1")
13.39
>>> recorded_measurement("CCC(Sc1nc2ccccc2o1)C(=O)Nc1nnc(C)s1 (stereo not drawn)")
-13.91
>>> recorded_measurement("CCN(CC)CCCCCCNc1cc(OC)cc2c(C)ccnc12.Cc1ccc(S(=O)(=O)O)cc1")
18.42
>>> recorded_measurement("O=C(OCc1ccccc1)N1CCC(c2cc(-c3ccncc3)c(-c3ccc(F)cc3)[nH]2)CC1")
3.21
>>> recorded_measurement("Cc1ccc(NC(=O)CC2COc3ccccc3O2)cc1Cl (stereo not drawn)")
15.28

Q. Please report Inhibition with Staphylococcus aureus for item "O=C1[C@@H](Oc2ccccc2)[C@@H](c2ccc(Cl)cc2)N1CCn1cnc2c(NCc3ccccc3)ncnc21" .
A. -4.13

Q. Please report Inhibition with Staphylococcus aureus for item "Nc1ncc(-c2ccc(C(F)(F)F)nc2)cc1-c1ccc(C(F)(F)F)nc1" .
A. 3.63

Q. Please report Inhibition with Staphylococcus aureus for item "COc1ccccc1OCCCCn1c(C2CC2)nc2ccccc21" .
A. 12.87

Q. Please report Inhibition with Staphylococcus aureus for item "Cc1cc(C)c2cc(C(=O)NC3CCCCCCC3)[nH]c2c1" .
A. 16.44

Q. Please report Inhibition with Staphylococcus aureus for item "CC(C)(C)n1nc(Cc2cccc3ccccc23)c2c(N)ncnc21" .
A. 2.05

Q. Please report Inhibition with Staphylococcus aureus for item "Cc1ccc(Oc2ccc(NC(=O)CNc3ccccc3N3CCCC3=O)cc2)cc1" .
A. 5.88

Q. Please report Inhibition with Staphylococcus aureus for item "COC(=O)c1cccc2oc(-c3cccc(OC)c3NC(=O)c3cc(-c4ccccc4)on3)nc12" .
A. 11.44
